run.description: in vitro
Assay type: cell-based, human
conditions: human, Table 3; 50% reduction in the level of ATP in HOS cells
metric.name: CC50

[
  {
    "molecule": "O=C(NCc1ccc(F)cc1F)c1c(Nc2ccccc2)c2cccnc2n(O)c1=O [XZ377]",
    "observed.value": "> 250 µM"
  },
  {
    "molecule": "Nc1ccc(-c2ccc(Nc3c(C(=O)NCc4ccc(F)cc4F)c(=O)n(O)c4ncccc34)cc2)cc1 [XZ387]",
    "observed.value": "> 250 µM"
  },
  {
    "molecule": "NCCNc1c(C(=O)NCc2ccc(F)cc2F)c(=O)n(O)c2ncccc12 [XZ403]",
    "observed.value": "9.6 µM"
  },
  {
    "molecule": "CCOC(=O)[C@@H]1CCCN1c1c(C(=O)NCc2ccc(F)cc2F)c(=O)n(O)c2ncccc12 [XZ404]",
    "observed.value": "18.2 µM"
  },
  {
    "molecule": "COC(=O)[C@H](Nc1c(C(=O)NCc2ccc(F)cc2F)c(=O)n(O)c2ncccc12)c1ccccc1 [XZ397]",
    "observed.value": "> 250 µM"
  },
  {
    "molecule": "O=C(NCc1ccc(F)c(F)c1)c1c(O)c2cccnc2n(O)c1=O [XZ367]",
    "observed.value": "192 µM"
  },
  {
    "molecule": "CCCCCNc1c(C(=O)NCc2ccc(F)cc2F)c(=O)n(O)c2ncccc12 [XZ380]",
    "observed.value": "94.2 µM"
  },
  {
    "molecule": "O=C(NCc1ccc(F)cc1F)c1c(Nc2ccc(-c3ccccc3)cc2)c2cccnc2n(O)c1=O [XZ385]",
    "observed.value": "> 250 µM"
  },
  {
    "molecule": "O=C(NCc1ccc(F)c(F)c1)c1cc2cccnc2n(O)c1=O [XZ392]",
    "observed.value": "> 250 µM"
  },
  {
    "molecule": "COC(=O)[C@H](CO)Nc1c(C(=O)NCc2ccc(F)cc2F)c(=O)n(O)c2ncccc12 [XZ398]",
    "observed.value": "> 250 µM"
  }
]

Fill blank: measured CC50 of the molecule O=C(NCc1ccc(F)cc1F)c1c(Nc2ccc3c(c2)Cc2ccccc2-3)c2cccnc2n(O)c1=O [XZ386] is ____.
> 250 µM

Fill blank: measured CC50 of the molecule N#Cc1ccc(-c2ccc(Nc3c(C(=O)NCc4ccc(F)cc4F)c(=O)n(O)c4ncccc34)cc2)cc1 [XZ388] is ____.
> 250 µM

Fill blank: measured CC50 of the molecule O=C(NCc1ccc(F)cc1F)c1c(O)c2cccnc2n(O)c1=O [XZ351] is ____.
137 µM
